# experiment-description: chemical genetic growth profiling, strain panel (AID 1159580);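 also: tested at 20 µM; growth read once vehicle control cultures reached saturation at 30 °C; 1 = growth at the plate median or of vehicle wells; lower values mean less growth of the strain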
# condition-summary: S. cerevisiae deletion strains, growth OD, locus YDR001C, strain nth1
The whole screen tested about 5,500 compounds, of which about 2,000 (36%) were called active. Roughly 18% stayed inconclusive and do not appear here. Rule as the data show it: active = normalized growth mostly below about 0.91 (no sharp cut-off); inconclusive = no clear call, values can overlap the other calls; inactive = mostly above about 0.92. The list shows a part of the results.
Outcome field: choose from active, inactive

- compound: "COc1ccc2c(c1)OCc1c-2oc2cc(OC)ccc12"
  cat: "inactive"
- compound: "COc1ccc2c3c1O[C@H]1C[C@@H](O)C=C[C@@]31CCN(C)C2"
  cat: "inactive"
- compound: "c1cncc(C2CCCCN2)c1 (stereo not drawn)"
  cat: "inactive"

// return assay outcome for COc1ccc2cc([C@H](C)C(=O)O)ccc2c1
inactive

Ok, now CCCCCCNC(=O)n1cc(F)c(=O)[nH]c1=O
inactive

Ok, now COc1ccc2c(C)cc(=O)oc2c1
inactive

Ok, now CN(C)C(=S)SSC(=S)N(C)C
active

Ok, now Oc1cc(Cl)ccc1Oc1ccc(Cl)cc1Cl
active

Ok, now COc1ccc(OC)c(C(O)C(C)N)c1 (stereo not drawn)
inactive

###

Each record here notes measured normalized growth.
# experiment-description: chemical genetic growth profiling, strain panel (AID 1159580);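 also: tested at 20 µM; growth read once vehicle control cultures reached saturation at 30 °C; 1 = growth at the plate median or of vehicle wells; lower values mean less growth of the strain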
# condition-summary: S. cerevisiae deletion strains, growth OD, locus YNL209W, strain ssb2, hits give low values
Hit rate of the full screen: of about 5,500 compounds, about 2,000 (36%) were called active. Another 18% or so got no clear call; they are omitted. The list shows a part of the results.
// no unit string in output, number only

Examples with answers:
- compound: "CCC(=O)O[C@H]1[C@H](O[C@@H]2[C@@H](C)[C@H](O[C@H]3C[C@@](C)(OC)[C@@H](O)[C@H](C)O3)[C@@H](C)C(=O)O[C@H](CC)[C@@](C)(O)[C@H](O)[C@@H](C)C(=O)[C@H](C)C[C@@]2(C)O)O[C@H](C)C[C@@H]1N(C)C"
  normalized growth: 0.992
- compound: "NC(=O)C(c1ccccc1)(c1ccccc1)C1CCN(CCc2ccc3c(c2)CCO3)C1 (centres undefined)"
  normalized growth: 1.02
- compound: "CC(=O)N[C@@H](CC(C)C)C(=O)O"
  normalized growth: 0.99

# next compound below
Given COc1ccc2c3c1O[C@H]1C[C@@H](O)C=C[C@@]31CCN(C)C2 , state its recorded normalized growth.
1

###

# experiment-description: chemical genetic growth profiling, strain panel (AID 1159580);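 also: tested at 20 µM; growth read once vehicle control cultures reached saturation at 30 °C; 1 = growth at the plate median or of vehicle wells; lower values mean less growth of the strain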
# condition-summary: S. cerevisiae deletion strains, growth OD, locus YDR335W, strain msn5
About 2,000 (36%) of roughly 5,500 compounds were called active. Inconclusive results (about 18%) are left out. Cut-off read from the data, not from the text of the source: active = normalized growth mostly below about 0.91 (no sharp cut-off); inconclusive = no clear call, values can overlap the other calls; inactive = mostly above about 0.92. This is one part of the list.
Outcome field: choose from TRUE = active, FALSE = inactive

Example entries begin here.
- compound: "Cc1cc(O)c(C)c(O)c1C(=O)O"
  cat: "FALSE"
- compound: "ClC1=C(Cl)C2(Cl)C3C4C=CC(C4)C3C1(Cl)C2(Cl)Cl (stereo not given)"
  cat: "FALSE"
- compound: "CCCCNc1cc(C(=O)O)cc(S(N)(=O)=O)c1Oc1ccccc1"
  cat: "FALSE"

Proceed to the following item.
// return assay outcome for COc1ccc2cc([C@H](C)C(=O)O)ccc2c1
FALSE

###

# experiment-description: chemical genetic growth profiling, strain panel (AID 1159580);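 also: tested at 20 µM; growth read once vehicle control cultures reached saturation at 30 °C; 1 = growth at the plate median or of vehicle wells; lower values mean less growth of the strain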
# condition-summary: S. cerevisiae deletion strains, growth OD, locus YOL006C, strain TOP1, hits give low values
Screen size: about 5,500 compounds; about 2,000 (36%) were called active. Roughly 18% stayed inconclusive and do not appear here. The list shows a part of the results.
Each record here notes measured normalized growth.
// no unit string in output, number only

Examples with answers:
- compound: "COc1cc2c(cc1OC)[C@@H]1C(=O)c3ccc4oc(C(C)C)cc4c3O[C@@H]1CO2"
  normalized growth: 1.11
- compound: "CC(N)C(=O)OC(C)(C)Cc1ccc(Cl)cc1 (stereo not drawn)"
  normalized growth: 1.05
- compound: "CC[C@H]1OC(=O)[C@H](C)[C@@H](O[C@H]2C[C@@](C)(OC)[C@@H](O)[C@H](C)O2)[C@H](C)[C@@H](O[C@@H]2O[C@H](C)C[C@H](N(C)C)[C@H]2O)[C@](C)(O)C[C@@H](C)CN(C)[C@H](C)[C@@H](O)[C@]1(C)O"
  normalized growth: 0.951
- compound: "CC(C[N+](C)(C)C)OC(N)=O (stereo not drawn)"
  normalized growth: 1.02
- compound: "COc1cc2c(cc1OC)[C@@H]1C(=O)c3ccc4c(c3O[C@@H]1CO2)C=CC(C)(C)O4"
  normalized growth: 0.908

Given C[C@H]1OC(n2cc(F)c(=O)[nH]c2=O)C(O)[C@@H]1O (stereo partly drawn) , state its recorded normalized growth.
1.03

Ok, now CC(C)OC(=O)C(C)(C)Oc1ccc(C(=O)c2ccc(Cl)cc2)cc1
0.61

Ok, now C=Cc1c2[nH]c(c1C)C=c1[nH]c(c(C)c1C=C)=CC1N=C(C=c3[nH]c(c(C)c3CCC(=O)O)=C2)C(CCC(=O)O)=C1C (stereo not drawn)
0.997

Hello, the source for this data is PubChem BioAssay AID1159580, in case you need it.
